test system: HS 578T breast; assay: NCI-60 one-dose screen, 48 h (100 = growth as untreated, 0 = no growth, -100 = all killed); conditions: 10 µM unless noted
About 83,000 compounds went through this panel and 20% of them were active in at least one assay; those are over-represented in the sample as a whole.
The following ranges of growth define the classes used here: class 1 = under 20%, class 2 = from 20% up to 80%, class 3 = 80% and over

>>> df
                                    compound  measured_target    class
 0            O=c1nc(NO)[nH]c(=O)n1Cc1ccccc1   HS 578T breast  class 3
 1  Cc1c(C)n(CC(O)CNC2CCCCC2C)c2ccccc12 (stereo not drawn)   HS 578T breast  class 2
 2   Nc1nc2c(s1)CCc1c-2c(Br)n(Cc2ccccc2)c1Br   HS 578T breast  class 3
 3  O=C1/C(=C/c2ccc(Cl)cc2)CN(Cc2cn(CCCNc3ccnc4cc(Cl)ccc34)nn2)C/C1=C\c1ccc(Cl)cc1   HS 578T breast  class 1
 4  CC1SC(c2ccc(Cl)cc2)N(CCc2cccs2)C1=O (stereo not drawn)   HS 578T breast  class 1
 5  COc1ccc(-n2ncc3c2ccc2cc(S(=O)(=O)c4ccccc4)c(=O)n(C)c23)cc1   HS 578T breast  class 2
 6  COc1cc(CNCCCN2C(=O)c3ccc4c5c(ccc(c35)C2=O)C(=O)N(CCCNCc2cc(OC)c(OC)c(OC)c2)C4=O)cc(OC)c1OC   HS 578T breast  class 1
 7  O=C1/C(=C/c2ccc(F)cc2)CN(Cc2cn(CCNc3ccnc4cc(Cl)ccc34)nn2)C/C1=C\c1ccc(F)cc1   HS 578T breast  class 1
 8  O=C(N/N=C/c1ccc(F)cc1)c1[nH]c2ccc(I)cc2c1-c1ccccc1   HS 578T breast  class 2
 9                Cc1ccc(C(=O)Nc2ccccc2N)cc1   HS 578T breast  class 2
10  CCCCC/C=C\C/C=C/CCCCCCCCNC(=O)Nc1ccc([N+](=O)[O-])cc1   HS 578T breast  class 3
11  COc1ccccc1-n1c(SCc2cc(OC)c(OC)c(OC)c2)nc2ccc(Cl)cc2c1=O   HS 578T breast  class 2
12  Cc1ccc(NS(=O)(=O)c2ccc(-c3cnc(C4CC4)o3)cc2)cc1   HS 578T breast  class 1
13       Clc1ccccc1Nc1ccc2nnc(-c3ccncc3)n2n1   HS 578T breast  class 3
14  O=C1c2ccccc2C(=O)c2c(Nc3ccc(CCO)cc3)ccc(O)c21   HS 578T breast  class 1
15  CCOC(=O)c1sc(NC(=O)CN2CCC(Cc3ccccc3)CC2)nc1C   HS 578T breast  class 3
